system: MDA-MB-231 breast; assay: NCI-60 one-dose screen, 48 h; conditions: 10 µM unless noted
About 83,000 compounds went through this panel and 20% of them were active in at least one assay; those are over-represented in the sample as a whole. Calls of active or inactive are those of the source. How the source made its calls: active means growth percent below 10; inactive means the rest.
Outcomes: active, inactive

INSERT INTO results (molecule, assigned_class) VALUES
  ('COc1c2ccoc2c(/C=C/C=O)c2oc(-c3ccccc3)cc(=O)c12', 'inactive'),
  ('COc1cc([C@@H]2NC(=O)NC(C)=C2C(=O)Nc2nc(-c3ccc(Cl)cc3)cs2)ccc1O', 'inactive'),
  ('Nc1n[nH]c2ccc([C@@H]3Nc4ccc5[nH]ncc5c4[C@H]4[C@H]5CCC(C5)[C@H]43)cc12', 'inactive'),
  ('O=C(NC(=S)Nc1cccc(NC(=S)NC(=O)c2ccccc2)c1)c1ccccc1', 'inactive'),
  ('CCCCCCn1c(=N)n(CC(O)COc2cccc(C)c2)c2ccccc21 (stereo unspecified)', 'active'),
  ('CCCC(=O)CC(C)=O.CCCC(=O)CC(C)=O.[Cu]', 'inactive'),
  ('CNCCNc1nc2ccccc2c2c(=O)c3cccc(C)c3sc12', 'active'),
  ('COc1cc(/C=C/C(=O)c2ccc(Nc3nc(NCCO)nc(N4CCOCC4)n3)cc2)cc(OC)c1OC', 'inactive'),
  ('COc1ccccc1C(=O)O/N=C(\N)Cc1cccc2ccccc12', 'inactive'),
  ('O=c1oc2ccc(Br)cc2c(=O)n1-c1ccc(Cl)cc1F', 'active'),
  ('O=c1oc2ccc(Cl)cc2c(=O)n1-c1ccc(Cl)cc1F', 'active'),
  ('CCOC(=O)c1cc2c(n1Cc1ccccc1OC)-c1oncc1CCC2', 'inactive'),
  ('Nc1nc2c(ncn2[C@@H]2O[C@H](CS)[C@@H](O)[C@H]2O)c(=O)[nH]1', 'inactive'),
  ('COC(=O)/C(CCC=C(C)C)=C1\[C@@H](OC(C)=O)C[C@@]2(C)[C@H]1CC(=O)[C@H]1[C@@]3(C)CC[C@H](NCc4ccccc4)[C@@H](C)[C@@H]3CC[C@@]12C', 'inactive'),
  ('COc1cc2nc(-c3cnc(N(C)C)nc3)nc(NC3CCN(Cc4ccccc4)CC3)c2cc1OC', 'active'),
  ('NS(=O)(=O)c1ccc(CCN=C=S)cc1', 'inactive');
